biological target: neutrophil elastase (Homo sapiens, UniProt P08246); assay: Human Neutrophil Elastase Assay; assay type: biochemical; parameters: purchased Calbiochem 324681; settings: substrate MeOSuc-Ala-Ala-Pro-Val-AMC, pH 7.5, room temperature
Sequence (P08246 30-247 limits assumed): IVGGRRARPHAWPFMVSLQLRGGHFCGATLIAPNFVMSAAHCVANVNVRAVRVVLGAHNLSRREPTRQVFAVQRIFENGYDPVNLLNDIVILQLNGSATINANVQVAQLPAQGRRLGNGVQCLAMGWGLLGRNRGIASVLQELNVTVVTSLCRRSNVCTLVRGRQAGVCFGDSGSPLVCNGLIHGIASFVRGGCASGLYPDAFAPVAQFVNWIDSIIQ
quantity measured: IC50 (nM)

a: CN(C)C(=O)CN1C(=O)N(c2cccc(C(F)(F)F)c2)C2=C(C(=O)CCC2)C1c1ccc(C#N)cc1S(C)(=O)=O (centres unmarked)
b: Cc1cc(C#N)ccc1C1C2=C(CCCC2=O)N(c2cccc(C(F)(F)F)c2)C(=O)N1C (centres unmarked)
Prompt: Hi there! Just curious which has the higher IC50 between a and b . Response format: the label of the selected entry.
Response: b
(b: 7.9 nM, a: 1.2 nM)

a: CC(C(=O)NCCO)N1C(=O)N(c2cccc(C(F)(F)F)c2)C2=C(C(=O)CCC2)C1c1ccc(C#N)cc1 (centres unmarked)
b: CN1CCCC1CNC(=O)CN1C(=O)N(c2cccc(C(F)(F)F)c2)C2=C(C(=O)CCC2)C1c1ccc(C#N)cc1 (centres unmarked)
c: N#Cc1ccc(C2C3=C(CCCC3=O)N(c3cccc(C(F)(F)F)c3)C(=O)N2CC(=O)N2CC3CC3C2)cc1 (centres unmarked)
Prompt: Please rank these molecules by IC50 in descending order. Thanks in advance for listing the labels in the requested order.
Response: b, a, c
